Exercise: state measured inhibition for each of the compounds provided.
target: Glucose transporter (Leishmania mexicana) (UniProt O61059); test: ST_JUDE_LEISH: Cytotoxicity at 2uM final concentration against transgenic Leishmania Mexicana promastigotes LmGT2 that are glucose transport deficient and complemented with the L. Mexicana glucose transporter 2. Activity is measured by DNA content using SYBR green in vitro; assay type: functional
A number alone suffices; assume %.

// inhibition value for O=C(Nc1ccccc1)NC1CCN(CCC2(c3ccc(Cl)c(Cl)c3)COCN(C(=O)c3ccccc3)C2)C1 (centres undefined) : 4.63

Query `Cc1cccc(Cn2ccc3c(N)nc(N)nc32)c1` yields inhibition of 3.04

`COc1ccc(NC(=O)Nc2ccc(Nc3nc(C)cc(N4CCCC4)n3)cc2)cc1` has a reported inhibition of 1.68

// inhibition value for `O=C(NC1CC1)c1cnc(N2CCC(c3ccccc3)CC2)c(Cl)c1` : 3.1

For record `Cc1cccc2nc(-c3cccc(-c4ccc(CN5CCC(C(N)=O)CC5)cc4)c3)[nH]c12` the listed inhibition is 9.06

Reported inhibition ( `CC(C)NCc1cccc(-c2ccc(NC(=O)c3cccc(C#N)c3)cc2)c1` ) = 2.32

Item: `Fc1ccc2[nH]c(-c3ccccc3)nc2c1CN1CCC(N2CCCC2)CC1` | inhibition: 2.29

Sure, the documented inhibition for `COc1ccc2nccc([C@@H](O)CN3CCC(NC(=O)/C(=C/c4ccccc4)c4ccc(-c5ccccc5)cc4)CC3)c2c1` is 0.6

Quick note, inhibition for O=C(NCc1ccccc1)C1Cc2c([nH]c3ccc(Br)cc23)C2(CCN(Cc3ccccc3)CC2)N1 (centres undefined) landed at 1.63

###

Record form. Attribute: inhibition. Fill in for each entry.
target: Hexose transporter 1 (Plasmodium falciparum) (UniProt O97467); test: ST_JUDE_LEISH: Cytotoxicity at 2uM final concentration against transgenic Leishmania Mexicana promastigotes LmPfHT that are glucose transport deficient and complemented with the Plasmodium falciparum hexose transporter. Activity is measured by DNA content using SYBR green in vitro; assay type: functional
// return numeric value only (unit: %, not printed)

Input `CC1(C)NC(N)=NC(=N)N1OCCCCCOc1ccccc1` . Output inhibition: 0.8

inhibition recorded for this molecule, `COc1ccc2c(N/N=C/c3ccccc3[N+](=O)[O-])ccnc2c1` , is -0.53

Input `COc1ccccc1CCNC(=O)c1cnc(N2CCN(c3ccncc3)CC2)c(Cl)c1` . Output inhibition: 83.8

Looking up Cc1ccc(N2C(=O)C3C(C2=O)C2(c4ccccc4)C(=O)C3(c3ccccc3)C(c3ccccc3)=C2c2ccccc2)cc1 (centres undefined) , I see its inhibition listed as 0.67

The recorded inhibition for `COc1ccc(S(=O)(=O)N(CC(=O)NN=C(C)c2cccs2)c2cc(C)cc(C)c2)cc1OC` is 2.03

In plain terms, `CC1(C)N=C(N)N=C(N)N1OCCCOc1cccc(C(=O)O)c1` has a documented inhibition of 5.61

# molecule `COc1ccc2nccc([C@@H](O)CN3CCC(NCc4nc5c([N+](=O)[O-])cccc5[nH]4)CC3)c2c1` ; its inhibition = 2.99

Form: molecule = CC(C)C1=C[C@H]2C[C@]3(C4OCCO4)[C@@H]4CC[C@@H](C)[C@H]4C[C@@]2(C(=O)OCC2COCO2)[C@]13C(=O)OC(c1ccccc1)c1ccccc1 (some centres undefined) ; inhibition = -2.48

The recorded inhibition for entry CCC1(C)CC(CCNCc2ccccc2O)(c2ccccc2OC)CCO1 (centres undefined) equals -0.31

Hello, the source for this data is ChEMBL document CHEMBL3433997, in case you need it.
